Cited source for all entries: paper PMC12281475

Each entry below carries its recorded Hill Slope.
Molecular target: CDK14_CycY (Homo sapiens)
Sequence (O94921 whole entry): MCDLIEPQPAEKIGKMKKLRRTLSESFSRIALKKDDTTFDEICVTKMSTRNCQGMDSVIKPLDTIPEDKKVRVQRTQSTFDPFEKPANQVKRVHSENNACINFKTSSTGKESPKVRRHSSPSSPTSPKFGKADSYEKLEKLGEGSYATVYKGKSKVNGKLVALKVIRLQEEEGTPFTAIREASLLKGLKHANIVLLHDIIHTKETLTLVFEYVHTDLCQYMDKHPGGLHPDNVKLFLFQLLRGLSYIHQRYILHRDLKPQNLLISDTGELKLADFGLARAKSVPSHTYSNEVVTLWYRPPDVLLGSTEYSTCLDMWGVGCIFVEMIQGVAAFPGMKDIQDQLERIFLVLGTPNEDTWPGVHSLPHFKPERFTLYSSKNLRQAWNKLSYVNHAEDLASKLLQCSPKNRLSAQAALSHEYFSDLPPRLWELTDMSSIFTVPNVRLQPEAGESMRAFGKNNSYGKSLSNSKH
Sequence (Q8ND76 whole entry partner): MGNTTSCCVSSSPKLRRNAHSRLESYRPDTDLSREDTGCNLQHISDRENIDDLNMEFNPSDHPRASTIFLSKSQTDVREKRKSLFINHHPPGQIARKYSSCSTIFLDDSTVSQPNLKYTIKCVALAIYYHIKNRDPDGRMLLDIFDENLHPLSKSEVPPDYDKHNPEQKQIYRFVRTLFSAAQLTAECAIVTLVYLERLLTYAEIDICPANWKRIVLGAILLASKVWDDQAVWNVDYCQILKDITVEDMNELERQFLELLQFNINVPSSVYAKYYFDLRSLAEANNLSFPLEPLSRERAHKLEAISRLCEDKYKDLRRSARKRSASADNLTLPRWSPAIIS
Test: Radiometric protein kinase assay (33PanQinase), CDK14_CycY
Type: biochemical
Conditions: slope of the IC50 fit

| MOLECULE | Hill Slope |
| --- | --- |
| Cn1cc(-c2ccc(-c3cncc(Cl)c3N3CCC4(CCNC4=O)CC3)cc2)cn1 [CCT251545] | -0.82 |
| CN1CCN(C(=O)c2ccc3cc(CCNc4ncnc5ccc(C#N)cc45)ccc3c2)CC1 [Senexin B, reference compound] | -0.57 |
| Cc1n[nH]c2ncc(C(=O)N3CCC[C@H]3c3ccc(Cl)cc3)cc12 [MSC2530818] | -1 |
| Cn1ncc2cc(-c3cnc(N)c(Cl)c3N3CCC4(CCNC4=O)CC3)ccc21 [CCT251921] | -0.73 |
| Cc1c(Br)c(Br)c2c3c1nc(N1CCNCC1)n3CCC2.Cl [SEL120-34A, reference compound] | -0.83 |

----------
Target: CDK18_CycY (Homo sapiens)
Sequence (Q07002 whole entry): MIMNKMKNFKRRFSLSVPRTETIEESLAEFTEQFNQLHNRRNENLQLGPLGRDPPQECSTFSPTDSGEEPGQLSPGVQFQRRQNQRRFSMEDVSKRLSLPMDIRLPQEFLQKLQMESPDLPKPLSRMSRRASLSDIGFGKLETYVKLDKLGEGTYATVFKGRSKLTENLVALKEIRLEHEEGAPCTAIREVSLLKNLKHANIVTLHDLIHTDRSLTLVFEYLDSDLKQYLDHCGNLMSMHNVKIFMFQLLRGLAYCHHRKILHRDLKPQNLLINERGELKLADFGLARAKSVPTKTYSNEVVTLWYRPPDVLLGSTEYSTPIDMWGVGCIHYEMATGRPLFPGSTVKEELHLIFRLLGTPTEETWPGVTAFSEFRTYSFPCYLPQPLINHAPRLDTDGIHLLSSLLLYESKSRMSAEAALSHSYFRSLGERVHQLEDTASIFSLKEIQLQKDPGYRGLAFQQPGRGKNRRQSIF
Sequence (Q8ND76 whole entry partner): as the sequence (Q8ND76 whole entry partner) above

| COMPOUND | COMPARISON_SYMBOL | IC50 / µM |
| --- | --- | --- |
| Cn1ncc2cc(-c3cnc(N)c(Cl)c3N3CCC4(CCNC4=O)CC3)ccc21 | > | 10 |
| Cn1cc(-c2ccc(-c3cncc(Cl)c3N3CCC4(CCNC4=O)CC3)cc2)cn1 | > | 10 |
| Cc1n[nH]c2ncc(C(=O)N3CCC[C@H]3c3ccc(Cl)cc3)cc12 | = | 3.72 |
| Cc1c(Br)c(Br)c2c3c1nc(N1CCNCC1)n3CCC2.Cl [SEL120-34A, reference compound] | = | 7.84 |
| CN1CCN(C(=O)c2ccc3cc(CCNc4ncnc5ccc(C#N)cc45)ccc3c2)CC1 [Senexin B, reference compound] | > | 10 |

----------
pIC50: −log10 of the molar value.
Target or system UniProtKB Q00534: recorded pIC50 listed per item.

| MOLECULE | pIC50 |
| --- | --- |
| CN1CCN(C(=O)c2ccc3cc(CCNc4ncnc5ccc(C#N)cc45)ccc3c2)CC1 [Senexin B, reference compound] | < 5.00 |
| Cn1ncc2cc(-c3cnc(N)c(Cl)c3N3CCC4(CCNC4=O)CC3)ccc21 | < 5.00 |

----------
Target or system CDK9_CycK (Homo sapiens, UniProt P50750): recorded IC50 listed per item.

| COMPOUND | MEASURED_ON | COMPARISON_SYMBOL | IC50 [µM] |
| --- | --- | --- | --- |
| Cc1c(Br)c(Br)c2c3c1nc(N1CCNCC1)n3CCC2.Cl [SEL120-34A, reference compound] | CDK9_CycK (Homo sapiens, UniProt P50750) | = | 0.597 |
| Cc1n[nH]c2ncc(C(=O)N3CCC[C@H]3c3ccc(Cl)cc3)cc12 | CDK9_CycK (Homo sapiens, UniProt P50750) | > | 10 |
| CN1CCN(C(=O)c2ccc3cc(CCNc4ncnc5ccc(C#N)cc45)ccc3c2)CC1 [Senexin B, reference compound] | CDK9_CycK (Homo sapiens, UniProt P50750) | = | 5.16 |
| Cn1cc(-c2ccc(-c3cncc(Cl)c3N3CCC4(CCNC4=O)CC3)cc2)cn1 | CDK9_CycK (Homo sapiens, UniProt P50750) | = | 3.81 |
| Cn1ncc2cc(-c3cnc(N)c(Cl)c3N3CCC4(CCNC4=O)CC3)ccc21 | CDK9_CycK (Homo sapiens, UniProt P50750) | > | 10 |

----------
Each entry below carries its recorded Hill Slope.
Target: CDK15_CycA2 (Homo sapiens)
Construct: purchased Reaction Biology
Sequence (Q96Q40 whole entry): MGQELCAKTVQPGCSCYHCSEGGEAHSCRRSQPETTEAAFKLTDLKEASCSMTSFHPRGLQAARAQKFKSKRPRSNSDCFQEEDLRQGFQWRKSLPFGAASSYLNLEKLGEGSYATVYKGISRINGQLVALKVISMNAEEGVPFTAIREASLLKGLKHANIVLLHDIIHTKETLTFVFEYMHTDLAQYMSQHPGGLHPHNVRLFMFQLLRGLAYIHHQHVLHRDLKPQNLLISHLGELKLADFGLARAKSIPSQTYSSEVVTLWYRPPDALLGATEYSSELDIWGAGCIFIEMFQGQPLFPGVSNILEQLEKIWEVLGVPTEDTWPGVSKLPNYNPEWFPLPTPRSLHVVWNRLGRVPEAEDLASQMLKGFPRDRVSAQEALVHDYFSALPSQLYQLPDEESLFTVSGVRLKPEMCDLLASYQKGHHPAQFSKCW
Experiment: Radiometric protein kinase assay (33PanQinase), CDK15_CycA2
Format: biochemical
Settings: slope of the IC50 fit
VALUE_KIND: Hill Slope

| COMPOUND | VALUE_KIND | OBSERVED_MEASUREMENT |
| --- | --- | --- |
| Cc1c(Br)c(Br)c2c3c1nc(N1CCNCC1)n3CCC2.Cl [SEL120-34A, reference compound] | Hill Slope | -0.86 |
| CN1CCN(C(=O)c2ccc3cc(CCNc4ncnc5ccc(C#N)cc45)ccc3c2)CC1 [Senexin B, reference compound] | Hill Slope | -0.78 |
| Cc1n[nH]c2ncc(C(=O)N3CCC[C@H]3c3ccc(Cl)cc3)cc12 | Hill Slope | -0.85 |
| Cn1ncc2cc(-c3cnc(N)c(Cl)c3N3CCC4(CCNC4=O)CC3)ccc21 | Hill Slope | -0.85 |
| Cn1cc(-c2ccc(-c3cncc(Cl)c3N3CCC4(CCNC4=O)CC3)cc2)cn1 | Hill Slope | -0.34 |

----------
Each entry below carries its recorded Hill Slope.
Target: CDK1_CycE1 (Homo sapiens)
Construct: purchased Reaction Biology
Sequence (P06493 whole entry): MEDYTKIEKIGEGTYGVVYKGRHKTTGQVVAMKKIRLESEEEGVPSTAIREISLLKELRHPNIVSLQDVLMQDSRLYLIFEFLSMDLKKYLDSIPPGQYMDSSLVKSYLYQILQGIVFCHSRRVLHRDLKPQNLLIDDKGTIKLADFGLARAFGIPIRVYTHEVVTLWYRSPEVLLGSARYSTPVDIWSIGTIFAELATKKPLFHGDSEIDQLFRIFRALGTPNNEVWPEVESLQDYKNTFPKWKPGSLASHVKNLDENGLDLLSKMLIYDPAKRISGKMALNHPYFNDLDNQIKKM
Sequence (P24864 whole entry partner): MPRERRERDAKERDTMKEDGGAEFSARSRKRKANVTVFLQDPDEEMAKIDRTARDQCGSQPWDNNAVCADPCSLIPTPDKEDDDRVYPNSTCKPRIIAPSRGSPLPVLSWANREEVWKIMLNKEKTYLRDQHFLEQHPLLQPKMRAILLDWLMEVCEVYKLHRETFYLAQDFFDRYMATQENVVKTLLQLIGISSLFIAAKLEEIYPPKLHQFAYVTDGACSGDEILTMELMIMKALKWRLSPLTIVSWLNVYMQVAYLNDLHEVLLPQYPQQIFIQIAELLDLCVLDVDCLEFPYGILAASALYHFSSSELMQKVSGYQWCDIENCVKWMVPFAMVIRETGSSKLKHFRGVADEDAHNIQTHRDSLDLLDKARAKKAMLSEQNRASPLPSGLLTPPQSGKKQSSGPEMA
Assay: Radiometric protein kinase assay (33PanQinase), CDK1_CycE1
Format: biochemical
Settings: slope of the IC50 fit
VALUE_KIND: Hill Slope

| MOLECULE | MEASURED_ON | OBSERVED_MEASUREMENT |
| --- | --- | --- |
| Cc1n[nH]c2ncc(C(=O)N3CCC[C@H]3c3ccc(Cl)cc3)cc12 | CDK1_CycE1 (Homo sapiens) | -0.97 |
| CN1CCN(C(=O)c2ccc3cc(CCNc4ncnc5ccc(C#N)cc45)ccc3c2)CC1 [Senexin B, reference compound] | CDK1_CycE1 (Homo sapiens) | -0.4 |
| Cc1c(Br)c(Br)c2c3c1nc(N1CCNCC1)n3CCC2.Cl [SEL120-34A, reference compound] | CDK1_CycE1 (Homo sapiens) | -1.01 |
| Cn1cc(-c2ccc(-c3cncc(Cl)c3N3CCC4(CCNC4=O)CC3)cc2)cn1 | CDK1_CycE1 (Homo sapiens) | -0.72 |
| Cn1ncc2cc(-c3cnc(N)c(Cl)c3N3CCC4(CCNC4=O)CC3)ccc21 | CDK1_CycE1 (Homo sapiens) | -0.77 |

----------
Biological target: CDK4_CycD2 (Homo sapiens, UniProt P11802)
Construct: purchased Reaction Biology
Sequence (P11802 whole entry): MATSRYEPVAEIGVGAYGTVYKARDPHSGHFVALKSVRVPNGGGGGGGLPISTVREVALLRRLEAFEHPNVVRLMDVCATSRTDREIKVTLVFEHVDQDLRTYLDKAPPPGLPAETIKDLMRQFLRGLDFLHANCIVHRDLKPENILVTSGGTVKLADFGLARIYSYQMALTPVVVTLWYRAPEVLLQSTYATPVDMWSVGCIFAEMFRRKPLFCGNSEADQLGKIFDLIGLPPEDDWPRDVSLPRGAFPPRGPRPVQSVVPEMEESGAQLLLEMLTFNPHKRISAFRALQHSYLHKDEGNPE
Sequence (P30279 whole entry partner): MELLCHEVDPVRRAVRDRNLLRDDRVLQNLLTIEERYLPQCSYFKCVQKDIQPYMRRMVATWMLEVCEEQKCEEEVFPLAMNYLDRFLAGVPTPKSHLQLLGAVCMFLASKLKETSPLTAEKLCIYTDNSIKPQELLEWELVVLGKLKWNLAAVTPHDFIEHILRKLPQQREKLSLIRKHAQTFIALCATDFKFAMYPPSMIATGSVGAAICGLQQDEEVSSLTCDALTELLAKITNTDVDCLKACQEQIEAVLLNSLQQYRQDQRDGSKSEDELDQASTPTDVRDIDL
Experiment: Radiometric protein kinase assay (33PanQinase), CDK4_CycD2
Type: biochemical
Conditions: slope of the IC50 fit
VALUE_KIND: Hill Slope

| MOLECULE | OBSERVED_MEASUREMENT |
| --- | --- |
| Cn1ncc2cc(-c3cnc(N)c(Cl)c3N3CCC4(CCNC4=O)CC3)ccc21 | -0.33 |
| Cc1c(Br)c(Br)c2c3c1nc(N1CCNCC1)n3CCC2.Cl [SEL120-34A, reference compound] | -0.75 |
| CN1CCN(C(=O)c2ccc3cc(CCNc4ncnc5ccc(C#N)cc45)ccc3c2)CC1 [Senexin B, reference compound] | -0.64 |
| Cn1cc(-c2ccc(-c3cncc(Cl)c3N3CCC4(CCNC4=O)CC3)cc2)cn1 | -0.3 |
| Cc1n[nH]c2ncc(C(=O)N3CCC[C@H]3c3ccc(Cl)cc3)cc12 | -0.44 |

----------
Target: CDK6_CycD3 (Homo sapiens, UniProt Q00534)
Construct: purchased Reaction Biology
Sequence (Q00534 whole entry): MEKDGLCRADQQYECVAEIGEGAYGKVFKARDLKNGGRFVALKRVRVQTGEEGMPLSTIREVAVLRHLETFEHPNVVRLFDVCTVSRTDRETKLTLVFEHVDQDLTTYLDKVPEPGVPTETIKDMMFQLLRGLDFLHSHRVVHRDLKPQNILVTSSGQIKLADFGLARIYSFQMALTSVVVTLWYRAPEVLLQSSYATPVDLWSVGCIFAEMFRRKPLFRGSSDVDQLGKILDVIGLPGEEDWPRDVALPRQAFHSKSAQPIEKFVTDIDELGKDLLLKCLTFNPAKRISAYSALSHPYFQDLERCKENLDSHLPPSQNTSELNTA
Sequence (P30281 whole entry partner): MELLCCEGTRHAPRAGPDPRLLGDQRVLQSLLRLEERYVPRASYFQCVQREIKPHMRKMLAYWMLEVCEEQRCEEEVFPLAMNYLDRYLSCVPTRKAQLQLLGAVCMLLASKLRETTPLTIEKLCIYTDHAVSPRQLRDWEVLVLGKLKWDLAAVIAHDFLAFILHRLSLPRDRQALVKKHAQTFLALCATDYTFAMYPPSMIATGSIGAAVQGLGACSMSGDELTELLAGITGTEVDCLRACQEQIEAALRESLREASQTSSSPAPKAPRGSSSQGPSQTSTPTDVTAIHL
Assay: Radiometric protein kinase assay (33PanQinase), CDK6_CycD3
Type: biochemical
Conditions: slope of the IC50 fit

| COMPOUND | Hill Slope |
| --- | --- |
| Cc1n[nH]c2ncc(C(=O)N3CCC[C@H]3c3ccc(Cl)cc3)cc12 | -0.25 |
| Cc1c(Br)c(Br)c2c3c1nc(N1CCNCC1)n3CCC2.Cl [SEL120-34A, reference compound] | -0.38 |
| Cn1ncc2cc(-c3cnc(N)c(Cl)c3N3CCC4(CCNC4=O)CC3)ccc21 | -0.33 |
| CN1CCN(C(=O)c2ccc3cc(CCNc4ncnc5ccc(C#N)cc45)ccc3c2)CC1 [Senexin B, reference compound] | -0.32 |
| Cn1cc(-c2ccc(-c3cncc(Cl)c3N3CCC4(CCNC4=O)CC3)cc2)cn1 | -0.2 |

----------
Biological target: CDK19_CycC (Homo sapiens, UniProt Q9BWU1)
Construct: purchased Reaction Biology
Sequence (Q9BWU1 whole entry): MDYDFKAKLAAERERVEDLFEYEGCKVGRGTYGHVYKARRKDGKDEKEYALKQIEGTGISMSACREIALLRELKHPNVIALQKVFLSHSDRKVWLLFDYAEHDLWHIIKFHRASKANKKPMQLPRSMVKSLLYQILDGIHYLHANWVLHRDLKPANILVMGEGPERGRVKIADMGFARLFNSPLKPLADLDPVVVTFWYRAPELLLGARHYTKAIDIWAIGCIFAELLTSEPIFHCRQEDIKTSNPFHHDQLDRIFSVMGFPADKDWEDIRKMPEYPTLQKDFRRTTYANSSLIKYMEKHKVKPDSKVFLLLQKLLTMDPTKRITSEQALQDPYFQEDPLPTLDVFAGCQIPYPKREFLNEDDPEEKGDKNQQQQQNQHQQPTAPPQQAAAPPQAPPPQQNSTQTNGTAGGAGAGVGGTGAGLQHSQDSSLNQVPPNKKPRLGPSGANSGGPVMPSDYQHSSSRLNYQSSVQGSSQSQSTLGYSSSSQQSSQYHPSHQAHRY
Sequence (P24863 whole entry partner): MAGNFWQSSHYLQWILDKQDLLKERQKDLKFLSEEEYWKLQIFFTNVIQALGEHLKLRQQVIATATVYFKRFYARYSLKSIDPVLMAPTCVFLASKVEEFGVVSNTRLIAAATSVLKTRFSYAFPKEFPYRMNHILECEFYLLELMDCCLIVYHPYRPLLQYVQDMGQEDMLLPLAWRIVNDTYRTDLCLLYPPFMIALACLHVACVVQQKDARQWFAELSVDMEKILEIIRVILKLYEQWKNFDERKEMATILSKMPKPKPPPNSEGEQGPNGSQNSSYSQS
Experiment: Radiometric protein kinase assay (33PanQinase), CDK19_CycC
Type: biochemical
Conditions: slope of the IC50 fit
VALUE_KIND: Hill Slope

| MOLECULE | VALUE_KIND | OBSERVED_MEASUREMENT |
| --- | --- | --- |
| CN1CCN(C(=O)c2ccc3cc(CCNc4ncnc5ccc(C#N)cc45)ccc3c2)CC1 [Senexin B, reference compound] | Hill Slope | -0.53 |
| Cn1cc(-c2ccc(-c3cncc(Cl)c3N3CCC4(CCNC4=O)CC3)cc2)cn1 | Hill Slope | -0.53 |
| Cc1c(Br)c(Br)c2c3c1nc(N1CCNCC1)n3CCC2.Cl [SEL120-34A, reference compound] | Hill Slope | -0.83 |
| Cn1ncc2cc(-c3cnc(N)c(Cl)c3N3CCC4(CCNC4=O)CC3)ccc21 | Hill Slope | -0.45 |
| Cc1n[nH]c2ncc(C(=O)N3CCC[C@H]3c3ccc(Cl)cc3)cc12 | Hill Slope | -0.43 |
